tested on: HELA cells (Acc57); assay: Cytotoxicity assay (MTT reduction), HELA cells; type: cell-based; details: Hela cells
Where a SMILES comes first, the peptide text is derived from it.
parameter: Cytotoxicity LC50/GI50 Hela cells (µM)
Report the figure in µM without appending any unit label.

Enquiry: Return the recorded Cytotoxicity LC50/GI50 Hela cells value; entry: CC[C@H](C)[C@@H]1NC(=O)[C@H](CO)NC(=O)[C@H](C)NC(=O)[C@H]([C@@H](C)O)NC(=O)[C@@H]2CSSC[C@H](NC(=O)[C@H](CCC(N)=O)NC(=O)[C@@H]3CCCN3C(=O)[C@@H]3CCCN3C1=O)C(=O)N[C@@H](Cc1ccc(O)cc1)C(=O)N1CCC[C@@H]1C(=O)N1CCC[C@H]1C(=O)N[C@@H](CCC(C)C)C(=O)N2 [Ex. 100] (HELM PEPTIDE1{[CC(C)CC[C@H](N[*:1])C(=O)[*:2]].C.T.A.S.I.P.P.Q.C.Y.[dP].P}$PEPTIDE1,PEPTIDE1,2:R3-10:R3|PEPTIDE1,PEPTIDE1,1:R1-13:R2$$$V2.0)
Return: 83

* * *

biological target: Elastase from human neutrophils (Homo sapiens); test: Enzymatic assay, elastase; conditions: Elastase IC50
Sequence (P08246 30-267): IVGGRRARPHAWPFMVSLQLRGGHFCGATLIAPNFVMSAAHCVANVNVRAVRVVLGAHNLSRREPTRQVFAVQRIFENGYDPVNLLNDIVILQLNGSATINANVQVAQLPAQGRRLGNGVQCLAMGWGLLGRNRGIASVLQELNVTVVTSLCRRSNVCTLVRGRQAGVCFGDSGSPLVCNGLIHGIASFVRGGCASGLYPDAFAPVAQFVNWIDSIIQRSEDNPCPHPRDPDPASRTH
Where a SMILES comes first, the peptide text is derived from it.
Catalogue of pIC50 readings, one per entry.
Keep in mind that pIC50 stands for -log10 of concentration in molar terms.

CCCC[C@@H]1NC(=O)[C@@H]2CCCN2C(=O)[C@H]2CCCN2C(=O)[C@H](Cc2ccc(O)cc2)NC(=O)[C@@H]2CSSC[C@H](NC1=O)C(=O)N[C@@H]([C@@H](C)O)C(=O)N[C@@H](C)C(=O)N[C@@H](CO)C(=O)N[C@@H](CC1CCCCC1)C(=O)N1CCC[C@H]1C(=O)N1CCC[C@H]1C(=O)N[C@@H](CCC(N)=O)C(=O)N2 [Ex. 82] (HELM PEPTIDE1{[Nle].C.T.A.S.[Cha].P.P.Q.C.Y.[dP].P}$PEPTIDE1,PEPTIDE1,2:R3-10:R3|PEPTIDE1,PEPTIDE1,1:R1-13:R2$$$V2.0) :: 7.74

Now consider the entry below.
Enquiry: Specify reported pIC50 for the compound shown: CCCC[C@@H]1NC(=O)[C@@H]2CCCN2C(=O)[C@H]2CCCN2C(=O)[C@H](Cc2ccc(O)cc2)NC(=O)[C@@H]2CSSC[C@H](NC1=O)C(=O)N[C@@H]([C@@H](C)O)C(=O)N[C@@H](C)C(=O)N[C@@H](CO)C(=O)N[C@@H](CCCC)C(=O)N1CCC[C@H]1C(=O)N1CCC[C@H]1C(=O)N[C@@H](CCC(N)=O)C(=O)N2 [Ex. 79] (HELM PEPTIDE1{[Nle].C.T.A.S.[Nle].P.P.Q.C.Y.[dP].P}$PEPTIDE1,PEPTIDE1,2:R3-10:R3|PEPTIDE1,PEPTIDE1,1:R1-13:R2$$$V2.0)
Return: 7.18

* * *

molecular target: Chymase, from human skin (Homo sapiens, UniProt P23946); assay: Enzymatic assay, chymase
Sequence (P23946 22-247): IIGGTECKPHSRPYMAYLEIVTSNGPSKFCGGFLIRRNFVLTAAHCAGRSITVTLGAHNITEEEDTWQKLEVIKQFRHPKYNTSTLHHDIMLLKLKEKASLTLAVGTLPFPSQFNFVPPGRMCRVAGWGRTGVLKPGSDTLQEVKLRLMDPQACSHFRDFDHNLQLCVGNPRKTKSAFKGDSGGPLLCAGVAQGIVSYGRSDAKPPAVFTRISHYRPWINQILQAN
Where a SMILES comes first, the peptide text is derived from it.
# Chymase at 100 μM % per entry
Unit % implied. Number only.

CCCC[C@@H]1NC(=O)[C@@H]2CCCN2C(=O)[C@H]2CCCN2C(=O)[C@H](Cc2ccc(O)cc2)NC(=O)[C@@H]2CSSC[C@H](NC1=O)C(=O)N[C@@H]([C@@H](C)O)C(=O)N[C@@H](C)C(=O)N[C@@H](CO)C(=O)N[C@@H](C1CCCCC1)C(=O)N1CCC[C@H]1C(=O)N1CCC[C@H]1C(=O)N[C@@H](CCC(N)=O)C(=O)N2 [Ex. 84] (HELM PEPTIDE1{[Nle].C.T.A.S.[O=C([C@@H](N[*:1])C1CCCCC1)[*:2]].P.P.Q.C.Y.[dP].P}$PEPTIDE1,PEPTIDE1,2:R3-10:R3|PEPTIDE1,PEPTIDE1,1:R1-13:R2$$$V2.0) :: 0

Next, consider the following compound.
Enquiry: For the compound CCCC[C@@H]1NC(=O)[C@H](CCC(=O)O)NC(=O)[C@@H](CCCCN)NC(=O)[C@H](Cc2ccc(O)cc2)NC(=O)[C@@H]2CSSC[C@H](NC1=O)C(=O)N[C@@H]([C@@H](C)O)C(=O)N[C@@H](C)C(=O)N[C@@H](CO)C(=O)N[C@@H]([C@@H](C)CC)C(=O)N1CCC[C@H]1C(=O)N1CCC[C@H]1C(=O)N[C@@H](CCC(N)=O)C(=O)N2 [Ex. 127] (HELM PEPTIDE1{[Nle].C.T.A.S.I.P.P.Q.C.Y.[dK].E}$PEPTIDE1,PEPTIDE1,2:R3-10:R3|PEPTIDE1,PEPTIDE1,1:R1-13:R2$$$V2.0) , give its measured Chymase at 100 μM % value.
Return: 1.9
